Test target: Penicillin-binding protein 3 (Pseudomonas aeruginosa, UniProt Q51504)
Sequence (Q51504 whole entry): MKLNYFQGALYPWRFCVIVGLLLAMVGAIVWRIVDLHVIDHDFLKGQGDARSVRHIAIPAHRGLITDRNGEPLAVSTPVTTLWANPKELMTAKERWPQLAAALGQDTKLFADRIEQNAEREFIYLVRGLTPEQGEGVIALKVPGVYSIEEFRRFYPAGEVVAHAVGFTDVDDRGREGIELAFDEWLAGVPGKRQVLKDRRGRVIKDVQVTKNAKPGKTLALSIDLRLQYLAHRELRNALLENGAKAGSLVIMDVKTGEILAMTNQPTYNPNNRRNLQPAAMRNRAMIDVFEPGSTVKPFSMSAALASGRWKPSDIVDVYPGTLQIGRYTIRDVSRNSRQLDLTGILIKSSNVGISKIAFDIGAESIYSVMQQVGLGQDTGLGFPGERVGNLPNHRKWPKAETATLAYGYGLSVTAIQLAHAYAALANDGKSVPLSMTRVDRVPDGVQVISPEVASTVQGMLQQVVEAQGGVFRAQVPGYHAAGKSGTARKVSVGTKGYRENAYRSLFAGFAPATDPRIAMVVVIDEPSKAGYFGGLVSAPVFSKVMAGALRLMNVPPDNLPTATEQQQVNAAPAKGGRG
Test description: Inhibition of Pseudomonas aeruginosa PBP3 assessed as reduction in fluorescence intensity of bocillin labeled protein pre-incubated for 20 mins before bocillin addition by SDS-PAGE analysis
Observed property: IC50 (µM)
Numbers only; they are read as µM.

Return IC50 measured with Penicillin-binding protein 3 (Pseudomonas aeruginosa, UniProt Q51504) given this molecule: CC(C)(O/N=C(\C(=O)N[C@H]1CN2CC(C(=O)NCCN3C(=O)c4cc(O)c(O)cc4C3=O)=C(C(=O)O)N2C1=O)c1csc(N)n1)C(=O)O
2.5

----------
Test description: Inhibition of Acinetobacter baumanni PBP3 assessed as reduction in fluorescence intensity of bocillin labeled protein by SDS-PAGE analysis
Set-up: species or system Acinetobacter baumannii
Observed property: IC50
Returns: string containing the number followed by the unit.

For the compound shown here, C[C@@H](O)[C@H]1C(=O)N2C(C(=O)O)=C(S[C@@H]3CN[C@H](CNS(N)(=O)=O)C3)[C@H](C)[C@H]12 [DORIPENEM] , give the reported IC50.
2.3 µM
